The reported numbers originate from paper PMC4522133.

Conditions: Patient ID 179, CYP2D6 functional group PM/PM
measure.name: plasma concentration (ng/mL)

Input: plasma concentration lookup needed for CC/C(=C(\c1ccccc1)c1ccc(OCCN(C)C)cc1)c1ccc(O)cc1 [4'-OH-Tam] , thanks.
Output: 2.20

(P) CC/C(=C(\c1ccccc1)c1ccc(OCCN(C)C)cc1)c1ccccc1 [Tamoxifen]
(Q) CC/C(=C(\c1ccc(O)cc1)c1ccc(OCCNC)cc1)c1ccccc1 [(Z)-Endoxifen 3-OH-NDM-Tam]
(R) CC/C(=C(/c1ccc(OCCNC)cc1)c1ccc(O[C@@H]2O[C@H](C(=O)O)[C@@H](O)[C@H](O)[C@H]2O)cc1)c1ccccc1 [4-OH-NDM-Tam-Gluc]
(S) CCC(=C(c1ccccc1)c1ccc(OCCNC)cc1)c1ccc(O)cc1 [4'-OH-NDM-Tam]
Input: Task field, ranking: reported plasma concentration, descending order. Record the ranking as a list of labels in the requested order.
Output: P, S, Q, R
(P: 200.59 ng/mL, S: 3.840 ng/mL, Q: 2.19 ng/mL, R: 0.223 ng/mL)

###

Conditions: Patient ID 150, CYP2D6 functional group EM/EM
measure.name: plasma concentration (ng/mL)

Solved cases below.
Input: Which plasma concentration reading was recorded for the compound CCC(=C(c1ccccc1)c1ccc(OCCNC)cc1)c1ccc(O)cc1 [4'-OH-NDM-Tam] ?
Output: 3.596

Input: Which measured plasma concentration value corresponds to CC/C(=C(\c1ccccc1)c1ccc(OCCN(C)C)cc1)c1ccccc1 [Tamoxifen] ?
Output: 223.17

Input: GET /values?readout=plasma concentration&item= CC(O)C(=C(c1ccccc1)c1ccc(OCCN(C)C)cc1)c1ccccc1 (racemic) [(E)-a-OH-Tam]
Output: 0.474

Input: Sample CC/C(=C(\c1ccccc1)c1ccc(OCCN(C)C)cc1)c1ccc(O)cc1 [4'-OH-Tam] — what was its plasma concentration?
Output: 3.28

Input: Endpoint output: plasma concentration of CC/C(=C(\c1ccc(O)cc1)c1ccc(OCCNC)cc1)c1ccccc1 [(Z)-Endoxifen 3-OH-NDM-Tam] . Value?
Output: 9.73

(a) CC/C(=C(/c1ccc(OCCNC)cc1)c1ccc(O[C@@H]2O[C@H](C(=O)O)[C@@H](O)[C@H](O)[C@H]2O)cc1)c1ccccc1 [4-OH-NDM-Tam-Gluc]
(b) CC(O)C(=C(c1ccccc1)c1ccc(OCCN(C)C)cc1)c1ccccc1 (racemic) [(Z)-a-OH-Tam]
Input: Pick one, a or b : lowest reported plasma concentration. # respond with the chosen item's label
Output: b
(b: 0 ng/mL, a: 0.835 ng/mL)

###

Settings: Patient ID 167, CYP2D6 functional group PM/PM
measure.name: plasma concentration (ng/mL)

Below are worked cases with known answers.
Input: Bench note: what plasma concentration did CC/C(=C(\c1ccccc1)c1ccc(OCCN(C)C)cc1)c1ccccc1 show?
Output: 273.31

Input: Entry CCC(=C(c1ccccc1)c1ccc(OCCNC)cc1)c1ccc(O)cc1 has what plasma concentration?
Output: 10.931

Input: I am curious: what plasma concentration value has been reported for CC/C(=C(\c1ccc(O)cc1)c1ccc(OCCNC)cc1)c1ccccc1 [(Z)-Endoxifen 3-OH-NDM-Tam] ?
Output: 3.46

(P) CC/C(=C(/c1ccc(OCCNC)cc1)c1ccc(O[C@@H]2O[C@H](C(=O)O)[C@@H](O)[C@H](O)[C@H]2O)cc1)c1ccccc1
(Q) CC/C(=C(\c1ccccc1)c1ccc(OCCN(C)C)cc1)c1ccc(O)cc1
Input: Field: entry with larger plasma concentration (options P / Q ). Mark your selection by writing its label.
Output: Q
(Q: 4.41 ng/mL, P: 0.404 ng/mL)

###

Details: Patient ID 127, CYP2D6 functional group EM/EM
measure.name: plasma concentration (ng/mL)

Input: Query (compound): CC(O)C(=C(c1ccccc1)c1ccc(OCCN(C)C)cc1)c1ccccc1 (racemic) [(Z)-a-OH-Tam] ; field requested: plasma concentration
Output: 0.079

Input: Which value of plasma concentration has been reported for CCC(=C(c1ccccc1)c1ccc(OCCNC)cc1)c1ccc(O)cc1 in the records?
Output: 6.486

(1) CC/C(=C(\c1ccccc1)c1ccc(OCCN(C)C)cc1)c1ccc(O)cc1
(2) CC/C(=C(/c1ccc(OCCNC)cc1)c1ccc(O[C@@H]2O[C@H](C(=O)O)[C@@H](O)[C@H](O)[C@H]2O)cc1)c1ccccc1
Input: Sort 1 and 2 by plasma concentration descending and give the first. Please respond with the label that marks your chosen entry.
Output: 1
(1: 4.17 ng/mL, 2: 0.595 ng/mL)

(A) CC/C(=C(\c1ccccc1)c1ccc(OCCN(C)C)cc1)c1ccccc1
(B) CC/C(=C(\c1ccc(O)cc1)c1ccc(OCCNC)cc1)c1ccccc1 [(Z)-Endoxifen 3-OH-NDM-Tam]
(C) CC(O)C(=C(c1ccccc1)c1ccc(OCCN(C)C)cc1)c1ccccc1 (racemic) [(E)-a-OH-Tam]
Input: Arrange the 3 compounds by rising plasma concentration, starting with the smallest. Form entry: labels listed in requested order.
Output: C, B, A
(C: 0.342 ng/mL, B: 6.37 ng/mL, A: 237.29 ng/mL)

###

Details: Patient ID 156, CYP2D6 functional group EM/EM
measure.name: plasma concentration (ng/mL)

Sample answers from the record:
Input: // query plasma concentration value for entry CCC(=C(c1ccccc1)c1ccc(OCCNC)cc1)c1ccc(O)cc1
Output: 4.377

Input: # get_value(readout='plasma concentration', item= CC/C(=C(\c1ccccc1)c1ccc(OCCN(C)C)cc1)c1ccccc1 )
Output: 177.52

Input: Item under review: CC/C(=C(/c1ccc(OCCNC)cc1)c1ccc(O[C@@H]2O[C@H](C(=O)O)[C@@H](O)[C@H](O)[C@H]2O)cc1)c1ccccc1 . Reported plasma concentration?
Output: 1.069

(I) CC/C(=C(\c1ccc(O)cc1)c1ccc(OCCNC)cc1)c1ccccc1 [(Z)-Endoxifen 3-OH-NDM-Tam]
(II) CC(O)C(=C(c1ccccc1)c1ccc(OCCN(C)C)cc1)c1ccccc1 (racemic) [(E)-a-OH-Tam]
(III) CC/C(=C(\c1ccccc1)c1ccc(OCCN(C)C)cc1)c1ccc(O)cc1
(IV) CC(O)C(=C(c1ccccc1)c1ccc(OCCN(C)C)cc1)c1ccccc1 (racemic) [(Z)-a-OH-Tam]
Input: Sort by plasma concentration, descending. A complete answer lists every label in the requested sequence.
Output: I, III, II, IV

###

Conditions: 279 patients, tamoxifen 20 mg daily
measure.name: Not detected: number and (%) of patients with no detectable plasma concentration

// solved cases for Not detected: number and (%) of patients with no detectable plasma concentration follow
Input: Bench note: what Not detected: number and (%) of patients with no detectable plasma concentration did CCC(=C(c1ccccc1)c1ccc(OCCN(C)C)cc1)c1ccc(O)cc1 [4′-OH-Tam, 4’-hydroxy-tamoxifen] show?
Output: 0 (0) N = 279 (%)

Input: What value of Not detected: number and (%) of patients with no detectable plasma concentration has been recorded for this entry: CC/C(=C(/c1ccc(OCCN(C)C)cc1)c1ccc(O[C@@H]2O[C@H](C(=O)O)[C@@H](O)[C@H](O)[C@H]2O)cc1)c1ccccc1 [(E)-4-OH-Tam-O-gluc]
Output: 1 (0.4) N = 279 (%)

Input: So what's the measured Not detected: number and (%) of patients with no detectable plasma concentration for this one? CC/C(=C(\c1ccccc1)c1ccc(OCCN(C)C)cc1)c1ccccc1
Output: 0 (0) N = 279 (%)

As a next step, examine the compound that follows.
Input: Field request: Not detected: number and (%) of patients with no detectable plasma concentration | item: CCC(=C(c1ccccc1)c1ccc(OCCNC)cc1)c1ccc(O)cc1 [4′-OH-NDM-Tam, 4’-hydroxy-N-desmethyl-tamoxifen]
Output: 1 (0.4) N = 279 (%)

###

Settings: Patient ID 123, CYP2D6 functional group EM/EM
measure.name: plasma concentration (ng/mL)

Input: Look up plasma concentration: CC/C(=C(\c1ccc(O)cc1)c1ccc(OCCNC)cc1)c1ccccc1 [(Z)-Endoxifen 3-OH-NDM-Tam]
Output: 14.14

Input: Returns the measured plasma concentration for the input compound. Input: CC/C(=C(\c1ccccc1)c1ccc(OCCN(C)C)cc1)c1ccc(O)cc1 [4'-OH-Tam]
Output: 4.52

Input: GET /values?readout=plasma concentration&item= CC(O)C(=C(c1ccccc1)c1ccc(OCCN(C)C)cc1)c1ccccc1 (racemic) [(Z)-a-OH-Tam]
Output: 0.071

(a) CC/C(=C(/c1ccc(OCCNC)cc1)c1ccc(O[C@@H]2O[C@H](C(=O)O)[C@@H](O)[C@H](O)[C@H]2O)cc1)c1ccccc1 [4-OH-NDM-Tam-Gluc]
(b) CC/C(=C(\c1ccccc1)c1ccc(OCCN(C)C)cc1)c1ccccc1 [Tamoxifen]
(c) CCC(=C(c1ccccc1)c1ccc(OCCNC)cc1)c1ccc(O)cc1 [4'-OH-NDM-Tam]
(d) CC(O)C(=C(c1ccccc1)c1ccc(OCCN(C)C)cc1)c1ccccc1 (racemic) [(E)-a-OH-Tam]
Input: Order these by plasma concentration, descending, and give the full ranking. Answer by listing the labels in the order asked for.
Output: b, c, a, d
(b: 334.71 ng/mL, c: 3.306 ng/mL, a: 2.232 ng/mL, d: 0.468 ng/mL)
